test system: PPARg:RXRa 30nM:10nM, anti-RXR (NR concentration 30 nM, RXRa partner concentration 10 nM); assay: PBM binding z-score (relative to random genomic background probes); higher = stronger binding; sequences stand for … in GC…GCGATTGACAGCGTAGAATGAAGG
Field: PBM binding z-score. Provide a value for each of the sequences that follow.
Numbers only.

For the sequence shown here, CAAACTAGGTCAAGGTCAAAGTCGGTTTGTGCCA , give the reported PBM binding z-score.
7.05

For the sequence shown here, TCTATTAGTTGATTAGGTCAACCGAAACAGCGGA , give the reported PBM binding z-score.
3.91

Report PBM binding z-score for each item below.
1. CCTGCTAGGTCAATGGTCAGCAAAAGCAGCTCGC
2. ACTAGCAGGCCAAGGGTCACTCAAGATTAGTCCG
3. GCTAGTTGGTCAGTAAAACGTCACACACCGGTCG
4. ACTAGCAGGCCAAGTTTGGGTCACTCTAACAAAG

2.5
7.41
-0.445
-0.547

For the sequence shown here, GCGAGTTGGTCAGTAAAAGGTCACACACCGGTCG , give the reported PBM binding z-score.
2.22
